# study.target: Muscarinic acetylcholine receptor M1 (Homo sapiens, UniProt P11229)
# Sequence (P11229 whole entry): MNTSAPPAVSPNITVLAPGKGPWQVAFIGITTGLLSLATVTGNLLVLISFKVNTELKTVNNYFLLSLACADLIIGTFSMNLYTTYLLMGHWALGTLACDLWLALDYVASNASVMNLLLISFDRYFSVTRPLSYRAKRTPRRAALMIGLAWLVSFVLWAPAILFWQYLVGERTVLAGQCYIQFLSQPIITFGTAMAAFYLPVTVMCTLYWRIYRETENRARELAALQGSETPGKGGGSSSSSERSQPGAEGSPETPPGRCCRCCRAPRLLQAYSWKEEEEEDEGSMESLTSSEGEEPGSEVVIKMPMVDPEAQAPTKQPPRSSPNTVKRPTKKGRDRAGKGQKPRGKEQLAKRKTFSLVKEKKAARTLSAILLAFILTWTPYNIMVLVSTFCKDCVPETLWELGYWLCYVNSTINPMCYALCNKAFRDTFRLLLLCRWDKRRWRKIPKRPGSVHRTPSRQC
# assay.overview: Agonistic activity against M1 muscarinic receptor expressed in A9 L cells.
# Format: functional, cell-based, A9L
reported.endpoint: EC50 (nM)

Field: example entries. Status: answers known.
CN1CCC=C(c2nsnc2SCCCCCCCCCCSc2nsnc2C2=CCCN(C)C2)C1	2100
CN1CCC=C(c2nsnc2SCCCCCCSc2nsnc2C2=CCCN(C)C2)C1	590
CN1CCC=C(c2nsnc2SCCCCCCCCCCCSc2nsnc2C2=CCCN(C)C2)C1	1500
CN1CCC=C(c2nsnc2SCCCSc2nsnc2C2=CCCN(C)C2)C1	350
CN1CCC=C(c2nsnc2SCCCCCCCCCCCCSc2nsnc2C2=CCCN(C)C2)C1	13000

P: CN1CCC=C(c2nsnc2SCCSc2nsnc2C2=CCCN(C)C2)C1
Q: CN1CCC=C(c2nsnc2SCCCCCSc2nsnc2C2=CCCN(C)C2)C1
R: CN1CCC=C(c2nsnc2SCCCCCCCCCSc2nsnc2C2=CCCN(C)C2)C1
S: CN1CCC=C(c2nsnc2SCCCCCCCSc2nsnc2C2=CCCN(C)C2)C1
Order the records, beginning with the lowest EC50 and ending with the highest. Arrange the labels as the request states and list them.
Q, R, S, P

I: CN1CCC=C(c2nsnc2SCCCCSc2nsnc2C2=CCCN(C)C2)C1
II: CN1CCC=C(c2nsnc2SCCCCCCCCSc2nsnc2C2=CCCN(C)C2)C1
Between the entries labelled I and II , which has a larger EC50 value on record? State your choice using its label.
II
